system: SR; assay: NCI tumour cell line growth inhibition, 48 h
Calls of active or inactive are those of the source. Cut-off read from the data, not from the text of the source: active = GI50 up to about 1.1 µM and inactive = higher.
Respond with a class label; see active, inactive

COMPOUND	TARGET OR TEST SYSTEM	CLASS NAME
Cc1c2cccc-2ccc2c3ccccc3n(C(=O)c3ccc(Cl)cc3)c12	SR	inactive
CC(=O)O[C@H]1C(=O)[C@@]2(C)[C@H]([C@H](OC(=O)c3ccccc3)[C@]3(O)C[C@H](OC(=O)[C@H](O)[C@@H](NC(=O)c4ccccc4)c4ccc5ccccc5c4)C(C)=C1C3(C)C)[C@]1(OC(C)=O)CO[C@@H]1C[C@@H]2O	SR	active
COc1ccc(OC)c(Cc2cnc3nc(N)nc(N)c3c2C)c1 [PIRITREXIM ISETHIONATE]	SR	active
O=C(c1ccco1)N(Cc1ccco1)C(=S)Nc1ccccc1	SR	inactive
CNC(=O)c1nnn(C2CCCCC2)c1S	SR	inactive

## Input Write down the call the test reported for this compound. Item: COc1cc2nc(-c3cccs3)nc(Cl)c2cc1OC
## Output active

## Input Write down the call the test reported for this compound. Item: O=C(c1ccccc1)c1ccc2[nH]c(-c3c(Cl)c(Cl)c(Cl)c(Cl)c3C(=O)N/N=C/c3cccc(Oc4ccccc4)c3)nc2c1
## Output inactive

###

Measured GI50 by item
system: COLO 205; experiment: NCI tumour cell line growth inhibition, 48 h
Activity calls are given as the source filed them. No stated cut-off is given here; in the data, active = GI50 up to about 1.1 µM and inactive = higher.

Here is how some compounds turned out for GI50.
COMPOUND	GI50
COC1=CC(=C(C#N)/C(=N\c2ccccc2)SC)C=C(OC)C1=O	> 100 µM (inactive)
Cn1c(=O)[nH]n(-c2ccc3ccccc3c2)c1=O	> 100 µM (inactive)
COc1ccc(/C=N\O[Si](C)(C)C(C)(C)C)cc1O[Si](C)(C)C(C)(C)C	22.5 µM (inactive)

Per the reported COLO 205 data, O=C(C/N=C(\CN(c1ccccc1)c1ccccc1)Oc1c(Cl)cc(Cl)cc1Cl)n1cnc2ccccc21 has GI50 of > 100 µM (inactive)

Per the reported COLO 205 data, O=C(O)c1ccccc1/C=N/N=C1NCCCCN1 has GI50 of > 100 µM (inactive)

Per the reported COLO 205 data, COc1ccc(C(SCC(N)C(=O)O)(c2ccc(OC)cc2)c2ccc(OC)cc2)cc1 (centres undefined) has GI50 of 12.4 µM (inactive)

Per the reported COLO 205 data, CN1CCN(c2n[nH]c(=O)c3c2nnn3C2CCCCC2)CC1 has GI50 of > 100 µM (inactive)

Per the reported COLO 205 data, O=C(CC(=O)Nc1ccccc1)N/N=C/c1cc(/N=N/c2ccc(Br)cc2)ccc1O has GI50 of 3.93 µM (inactive)

Per the reported COLO 205 data, CCCN(C(=O)c1ccccc1)C(C#N)c1ccc(C(C#N)N(CCC)C(=O)c2ccccc2)cc1 (centres undefined) has GI50 of > 100 µM (inactive)

Per the reported COLO 205 data, CC(C)(C)C(=O)C(CC(=O)c1ccccc1)C(=O)C(C)(C)C has GI50 of > 100 µM (inactive)

Per the reported COLO 205 data, CN(C)c1ccc(/C=C2\N=C(c3ccccc3)N(c3ccc4c(c3)Sc3cc(N5C(=O)/C(=C/c6ccc(N(C)C)cc6)N=C5c5ccccc5)ccc3N4)C2=O)cc1 has GI50 of > 100 µM (inactive)

Per the reported COLO 205 data, COC1CCN(N(C)C)O1 (centres undefined) has GI50 of > 100 µM (inactive)

Per the reported COLO 205 data, COc1cc(C(=O)Nc2cccc3ccccc23)c(Br)c(OC)c1OC has GI50 of > 100 µM (inactive)

Per the reported COLO 205 data, CC(CCC(=O)O)C(=O)O (centres undefined) has GI50 of > 100 µM (inactive)

Per the reported COLO 205 data, CC1(C)[C@@H]2C[C@H]1C(Cc1ccccc1C[C@H]1c3cc(-c4ccccn4)ncc3[C@H]3C[C@@H]1C3(C)C)c1cc(-c3ccccn3)ncc12 (some centres undefined) has GI50 of 0.399 µM (active)

Per the reported COLO 205 data, COC(=O)C1=CC2C(=O)c3ccccc3C1(c1ccccc1)N2C1CCCCC1 (centres undefined) has GI50 of 13.1 µM (inactive)

Per the reported COLO 205 data, COc1ccc2c3c(n(Cc4ccccc4)c(=O)c2c1)-c1cc(OC)c(OC)cc1C3C (centres undefined) has GI50 of 41.6 µM (inactive)

Per the reported COLO 205 data, NC1CC(=O)c2csc(Cl)c21 (centres undefined) has GI50 of 5.32 µM (inactive)

Per the reported COLO 205 data, CC1=CC(=O)N(n2c(Cc3ccc(Cl)cc3)n[nH]c2=O)C1=O has GI50 of 71.3 µM (inactive)

Per the reported COLO 205 data, CNc1ccccc1-c1nc2ccccc2c(=O)o1 has GI50 of > 100 µM (inactive)
